B1: RHOBTB2 (parent)
chain: HHHHGRDFLLRAASFDVCESVDEA

variants of: B1; test: protein stability index of a GFP-peptide fusion (GPS, HEK-293T) (PSI 1-6); higher = more stable; details: c terminus: a fixed tail appended;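 further: lentivirally expressed fusions sorted by FACS into six bins by GFP to DsRed ratio, PSI derived from sequencing read proportions per bin multiplied by bin number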
Parameter protein stability index: see the listing below.
measured property: protein stability index

| sequence string | endpoint result |
| --- | --- |
| HHHEGRDFLLRAASFDVCESVDEA [H4E] | 3.96 |
| HHHHGRDFLARAASFDVCESVDEA [L10A] | 3.94 |
| HHHHGRDFLYRAASFDVCESVDEA [L10Y] | 3.9 |
| HHHHGRDFLLRAAEFDVCESVDEA [S14E] | 3.89 |

Each recorded value in this set is attributed to the supplement of paper PMC10567573.
